# Study Target: human ether-à-go-go-related gene (hERG) potassium channel (human)
# Sequence (Q12809 whole entry, looked up): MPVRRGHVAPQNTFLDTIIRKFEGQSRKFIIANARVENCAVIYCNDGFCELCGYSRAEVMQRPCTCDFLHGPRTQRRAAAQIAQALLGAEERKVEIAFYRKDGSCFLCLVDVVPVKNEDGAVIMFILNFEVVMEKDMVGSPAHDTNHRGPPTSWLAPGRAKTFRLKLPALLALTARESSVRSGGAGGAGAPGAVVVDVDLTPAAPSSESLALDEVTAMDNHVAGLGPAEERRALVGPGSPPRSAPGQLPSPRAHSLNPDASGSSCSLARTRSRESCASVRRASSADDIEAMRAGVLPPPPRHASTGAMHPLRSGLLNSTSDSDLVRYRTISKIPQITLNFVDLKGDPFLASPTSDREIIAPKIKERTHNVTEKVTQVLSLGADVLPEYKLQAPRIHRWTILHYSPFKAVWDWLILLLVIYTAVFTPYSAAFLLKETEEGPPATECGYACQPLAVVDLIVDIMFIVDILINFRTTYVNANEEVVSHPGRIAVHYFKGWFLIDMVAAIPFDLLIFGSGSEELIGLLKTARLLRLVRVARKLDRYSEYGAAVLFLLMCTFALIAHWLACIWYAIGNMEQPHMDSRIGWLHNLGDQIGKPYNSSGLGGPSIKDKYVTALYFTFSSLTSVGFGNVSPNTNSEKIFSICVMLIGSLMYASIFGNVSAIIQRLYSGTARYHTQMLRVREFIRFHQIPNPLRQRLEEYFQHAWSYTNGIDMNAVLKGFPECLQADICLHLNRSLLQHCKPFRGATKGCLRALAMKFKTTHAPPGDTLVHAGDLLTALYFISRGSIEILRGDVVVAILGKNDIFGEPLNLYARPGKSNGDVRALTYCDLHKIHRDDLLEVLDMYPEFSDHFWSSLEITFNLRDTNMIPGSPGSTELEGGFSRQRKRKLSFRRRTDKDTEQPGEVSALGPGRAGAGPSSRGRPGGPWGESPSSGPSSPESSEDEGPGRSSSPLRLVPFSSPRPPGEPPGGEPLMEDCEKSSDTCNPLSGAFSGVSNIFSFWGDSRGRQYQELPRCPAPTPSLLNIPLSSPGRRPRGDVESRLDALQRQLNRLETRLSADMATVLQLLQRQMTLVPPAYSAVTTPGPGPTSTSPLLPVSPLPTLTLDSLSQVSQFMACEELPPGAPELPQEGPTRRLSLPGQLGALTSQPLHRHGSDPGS
# Test Name: primary screen, population patch clamp on CHO cells stably expressing hERG; higher = less effect of the substance
About 2,200 (0.71%) of roughly 310,000 compounds showed an effect of 50% or more. Effects have a minus sign here. The list comes from a sample in which strong results are over-represented; it also holds close analogues and randomly drawn compounds.
So basically: hERG current change (%, negative = inhibition) at 1uM at -20% or higher? That is y. Lower than -20%? That is n.

>>> discrete_label("CC1CN(CC(O)COC(c2ccc(Cl)cc2)c2ccc(Cl)cc2)CC(C)O1.Cl (stereo not shown)")
"y"
>>> discrete_label("CN1CCN(CC(O)COC(c2ccc(Cl)cc2)c2ccc(Cl)cc2)CC1.Cl (stereo not shown)")
"n"
>>> discrete_label("O=C(c1ccc(Cl)cc1)C1CCCN(Cc2ccc3ncccc3c2)C1 (stereo not shown)")
"y"
>>> discrete_label("O=C(COC(=O)C12CC3CC(CC(O)(C3)C1)C2)Nc1ccc(Cl)cc1F")
"y"
>>> discrete_label("COc1ccc(CN2CCCC(C(=O)c3ccc(Cl)cc3)C2)cc1Cn1cccn1 (stereo not shown)")
"n"
>>> discrete_label("COc1ccc(CNCC(O)(c2ccccc2)c2ccc(F)cc2)cc1 (stereo not shown)")
"n"
>>> discrete_label("COc1c(C)cc(C(=O)C2CCCN(Cc3cccc4nccnc34)C2)cc1C (stereo not shown)")
"n"
>>> discrete_label("OC(COC(c1ccc(F)cc1)c1ccc(F)cc1)CN1CCc2ccccc2C1 (stereo not shown)")
"y"
>>> discrete_label("OC(COC(c1ccc(Cl)cc1)c1ccc(Cl)cc1)CN1CCCC1 (stereo not shown)")
"n"
>>> discrete_label("c1cc2c(cc1C1CCCCC1)c1c3n2CCN=C3CCC1")
"y"
>>> discrete_label("CC1CCCN(CC(O)COC(c2ccccc2)c2ccccc2)C1 (stereo not shown)")
"y"
>>> discrete_label("O=C(O)C(=O)O.O=C(c1ccccc1)c1ccc(OCC(O)CNCc2ccc(F)cc2)cc1 (stereo not shown)")
"y"
>>> discrete_label("Cc1ccc(C(OCC(O)CNCc2ccc(F)cc2)c2ccccc2)cc1.O=C(O)C(=O)O (stereo not shown)")
"n"
>>> discrete_label("Cc1ccc(OCc2nnc(NC(=O)c3ccco3)s2)c(C)c1")
"y"
>>> discrete_label("Cc1ccc2c(c1)c1c3n2CCN=C3CCC1.Cl")
"n"
>>> discrete_label("OC1CCCN(CC(O)COC(c2ccccc2)c2ccccc2)C1 (stereo not shown)")
"y"
